measured metric: melting point (°C)
API: value field is a number in °C; no unit string.

-- ask Assign melting point to the following record: CC(C)CCCC(C)CCOC(=O)CC[C@H](N)C(=O)O (stereo partly drawn) [Example 8]
-- reply 150.8

-- ask Assign melting point to the following record: CCCCCCCCCCCCCCCCOC(=O)CC[C@H](N)C(=O)O [Example 6]
-- reply 179.3

-- ask Assign melting point to the following record: CCCCCCCCCCCCOC(=O)CC[C@H](N)C(=O)O [Example 4]
-- reply 189.9

-- ask Assign melting point to the following record: CCCCC(CC)COC(=O)CC[C@H](N)C(=O)O (stereo partly drawn) [Example 12]
-- reply 157.9

-- ask Assign melting point to the following record: CCCCCCCCCCCCCCOC(=O)CC[C@H](N)C(=O)O [Example 5]
-- reply 184.8

-- ask Assign melting point to the following record: CCCCCCCCCCCCCCCCCCOC(=O)CC[C@H](N)C(=O)O [Example 7]
-- reply 180.5

Cited source for all entries: patent US9493401B2
